The compounds listed here are annotated with their IC50.
targetUnderTest: acid ceramidase (Homo sapiens)
Construct: Cell lysates overexpressing acid ceramidase were used as the enzyme source; expressed in transfected cells
Sequence (Q13510 22-395): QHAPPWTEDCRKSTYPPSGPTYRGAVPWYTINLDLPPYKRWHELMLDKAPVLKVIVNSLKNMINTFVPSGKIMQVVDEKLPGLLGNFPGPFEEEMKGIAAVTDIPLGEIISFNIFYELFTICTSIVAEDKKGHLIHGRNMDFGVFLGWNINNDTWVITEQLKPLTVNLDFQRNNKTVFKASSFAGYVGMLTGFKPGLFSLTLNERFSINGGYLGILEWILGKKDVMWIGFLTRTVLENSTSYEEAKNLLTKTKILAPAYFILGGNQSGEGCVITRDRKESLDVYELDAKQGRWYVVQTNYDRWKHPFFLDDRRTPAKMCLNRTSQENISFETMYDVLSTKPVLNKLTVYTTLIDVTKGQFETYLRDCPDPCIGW
experimentNotes: Acid ceramidase inhibition, biochemical fluorescent assay with cell lysates overexpressing acid ceramidase, substrate Rbm14-12
studyConditions: substrate Rbm14-12 6.3 μM, pH 4.5

{"columns": ["compound", "assayValue"],
 "data": [
  ["CC(C)C#CCNC(=O)n1cnc2c(N3CC4CCC3CN4C)cccc21 (stereo not drawn)", "200 to 1000 nM"],
  ["CC(C)CCNC(=O)n1cnc2c(N3CC(N4CCN(C)CC4)C3)cccc21", "200 to 1000 nM"],
  ["CC(C)CCNC(=O)n1cnc2c(N3CCN(C(C)C)CC3)cccc21", "200 to 1000 nM"],
  ["COc1nc2c(N3CC(N4CCN(C)CC4)C3)cccc2n1C(=O)NCCOc1ccccc1", "> 1000 nM"],
  ["CNC1CCN(c2cccc3c2ncn3C(=O)NCCOc2ccccc2)C1 (stereo not drawn)", "< 200 nM"]
]}

Recall the reported IC50 of `CN1CCN(c2cccc3c2ncn3C(=O)NCC#CC2CC2)CC1` when tested on acid ceramidase (Homo sapiens).
< 200 nM

Recall the reported IC50 of `COc1nc2cc(N3CCOCC3)c(F)cc2n1C(=O)NCCCCc1ccccc1` when tested on acid ceramidase (Homo sapiens).
< 200 nM

----------
experimentNotes: Compound solubility in water
propertyMeasured: solubility (mg/mL)

Some compounds with recorded solubility:
{"columns": ["compound", "uom", "solubility"],
 "data": [
  ["N#CCCN1CCN(c2cccc3c2ncn3C(=O)NCCCc2ccccc2)CC1 [Example 278]", "mg/mL", 0.018],
  ["[2H]c1nc2ccccc2n1C(=O)NCCc1ccccc1 [Example 128]", "mg/mL", 0.015]
]}

[a] N#CCCN1CCN(c2cccc3c2ncn3C(=O)NCCC2CCC(F)(F)C2)CC1 (centres unmarked) [Example 288]
[b] O=C(NCCc1ccccc1)n1c(Oc2ccccc2)nc2ccccc21 [Example 37]
// compare measured solubility between a and b ; output the lower one Return value: the label identifying the chosen record.
b

----------
experimentNotes: Compound solubility in water
propertyMeasured: solubility (µg/mL)

Some molecules with recorded solubility:
{"columns": ["molecule", "uom", "assayValue"],
 "data": [
  ["COc1nc2ccc(N3CCOCC3)cc2n1C(=O)NCCC1CC1C(F)(F)F (stereo not drawn) [Example 230a]", "µg/mL", 26],
  ["COc1nc2cc(N3CCOCC3)ccc2n1C(=O)NCC1CC1Cc1ccccc1 (stereo not drawn) [Example 231b]", "µg/mL", 13],
  ["CN1CCC(c2c(C(F)(F)F)ccc3c2ncn3C(=O)NCCc2ccccc2)CC1 [Example 55]", "µg/mL", 13],
  ["COc1nc2ccc(N3CCOCC3)cc2n1C(=O)NCCCc1ccco1 [Example 228a]", "µg/mL", 29],
  ["CN1CCN(c2cccc3c2ncn3C(=O)NCC2CCC(F)(F)CC2)CC1 [Example 256]", "µg/mL", 24]
]}

[I] CCN1CCC(c2cccc3c2ncn3C(=O)NCCCc2ccccc2)C1 (stereo not drawn) [Example 261]
[II] CC(C)CCNC(=O)n1cnc2c(N3CCN4CCCC4C3)cccc21 (stereo not drawn) [Example 158]
[III] CCOc1nc2cc(N3CCOCC3)ccc2n1C(=O)NCCCc1ccccc1 [Example 189a]
[IV] CCCCNC(=O)n1cnc2ccc(OC)cc21 [Example 51b]
// smallest solubility at index 0, largest at the end Output spec: labels arranged per the requested ranking.
III, IV, II, I
